Recorded measurements of log Kd, one per entry
# assayed.target: T1, HLA-A*02:01 molecule
# T1 construct: MHC class I molecule on T2 cells (ATCC); also called product of an HLA-A*02:01 gene; allele A*02:01
# measurement.notes: flow cytometry, T2 cells
Enter the number alone.

binder="FSNDFGQSL (synthetic 9-mer derived from Casp-8) [peptide of SEQ ID NO: 35]" measurement_kind="log Kd" measured_value=-3.9

### Prompt I am curious: what log Kd value has been reported for LMITRKSFI (synthetic 9-mer derived from Fas) [peptide of SEQ ID NO: 17] ?
### Response -5.2

### Prompt So what does the record say about log Kd for CIDEHQWQL (synthetic 9-mer derived from EVC1) [peptide of SEQ ID NO: 28] ?
### Response -4.85

Recorded values, source patent US20250236642A1.
